This collection of values is drawn from patent US20210179726A1.

Target or test system: T1, hCD27-EGFP on HEK293 cells (human, UniProt P26842 20-260)
T1 construct: EGFP fusion expressed on transfected HEK293 cells; also called CD27-EGFP cells; cell surface CD27
T1 sequence (looked up): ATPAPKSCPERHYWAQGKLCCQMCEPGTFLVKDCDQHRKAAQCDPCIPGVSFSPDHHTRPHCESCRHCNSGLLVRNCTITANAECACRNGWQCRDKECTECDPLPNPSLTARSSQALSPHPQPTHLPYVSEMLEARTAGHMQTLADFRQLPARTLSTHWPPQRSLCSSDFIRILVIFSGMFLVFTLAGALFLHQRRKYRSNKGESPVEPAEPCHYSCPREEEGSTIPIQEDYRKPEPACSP
Method notes: FACS titration on CD27-EGFP HEK293 cells, 8 three-fold dilutions from 20 µg/ml, anti-human Ig-APC secondary, MFI; table drawn under the plot, unit from the x axis; no upper plateau reached
Readout name: LogEC50

[
  {
    "Binder": "d12674 (antibody, human IgG1, V domains shown, not shown: a dimerising Fc or GST, Humanized m2F11, human IgG1 / kappa) VH: EVHLQESGGGLVKPGGSLRLSCAASGFTFSSYAMSWVRQAPGKGLEWVAIIGDGDTYTYYPDSVKGRFTISRDNSKNRLYLQMNDLKSEDTAMYYCVRTRGGPFDYWGQGTTLTVSS VL: EILLTQSPAFMSATPGEKVTITCSASSSVGSMHWYQQKSGQSPRRLIYDTSKLASGVPDRFSGSGSGTDYTLTISSLEAEDAATYYCQQWSSIPPTFGAGTTLELK",
    "LogEC50": "0.635 Log10(ug/ml)"
  }
]

Requested field: LogEC50. Item: d14822 (antibody, human IgG1, V domains shown, not shown: a dimerising Fc or GST, Humanized m2F11, human IgG1 / kappa) VH: EVHLQESGGGLVKPGGSLRLSCAASGFTFSSYAMSWVRQTPDKGLEWVAIIGDGDTYTYYPDSVKGRFTISRDNSKNTLYLQMNDLKSEDTAMYYCVRTRGGPFDYWGQGTTLTVSS VL: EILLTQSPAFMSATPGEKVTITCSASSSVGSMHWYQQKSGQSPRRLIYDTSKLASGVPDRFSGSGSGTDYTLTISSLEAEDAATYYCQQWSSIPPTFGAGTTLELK
0.373 Log10(ug/ml)

Please give the result for d16647 (antibody, human IgG1, V domains shown, not shown: a dimerising Fc or GST, Humanized m2F11, human IgG1 / kappa) VH: QVELRESGGGLVKPGGSLRLSCAASGFTFSSYAMSWVRQTPDKGLEWVAIIGDGDTYTYYPDSVKGRFTISRDNSKNRLYLQMNDLKSEDTAMYYCVRTRGGPFDYWGQGTTLTVSS VL: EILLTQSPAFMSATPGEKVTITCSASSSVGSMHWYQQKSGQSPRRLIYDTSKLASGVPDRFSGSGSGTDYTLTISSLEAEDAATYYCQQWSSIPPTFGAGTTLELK too.
0.601 Log10(ug/ml)

Please give the result for m2F11 (antibody, human IgG1, V domains shown, Chimeric antibody: mouse VH/VL on human IgG1 / human kappa constant regions; Parent of the humanized antibodies; also called clone 2F11; not shown: human IgG1 constant region, UniProt P01857) VH: EVQLQESGGDLVKPGGSLKLSCAASGFTFSSYAMSWVRQTPEKRLEWVAIIGDGDTYTYYPDSVKGRFTVSRDNAKNNLYLQMSHLKSEDTAMYYCVRTRGGPFDYWGQGTTLTVSS VL: DIVLTQTPALMSASPGEKVTMTCSASSSVGSMHWYQQKSGTSPKRWIYDTSKLASGVPARFSGSGSGTSYSLTISSMEAEDAATYYCQQWSSIPPTFGAGTTLELK too.
0.417 Log10(ug/ml)
